meta.source: patent US11472803B2

What Cooperativity (alpha factor) was measured for each of the following?
molecular target: human M2 receptor (Homo sapiens, UniProt P08172); construct: expressed in transfected cells; host or cells: CHO-DUKX (CHO-DUKX-M2-GIRK); test: Functional M2-GIRK1/4 activation test: positive cooperativity (α factor), shift of acetylcholine dose-response curve; assay type: cell-based; settings: Allosteric EC50 shift of acetylcholine 8-point dose-response curve; CHO-DUKX-M2-GIRK cells; α>1 = positive cooperativity
I only need the number, thanks.

QUERY: Record lookup: for human M2 receptor (Homo sapiens, UniProt P08172), what Cooperativity (alpha factor) belongs to CC(NC(=O)c1cn(-c2c(F)cc(F)cc2F)c2nc(N3CCCC[C@@H]3CO)c(F)cc2c1=O)C(F)(F)C(F)(F)F (single isomer, unassigned) ?
RESULT: 13

QUERY: Cooperativity (alpha factor) of `CC1(O)CN(c2nc3c(cc2F)c(=O)c(C(=O)N[C@@H](C2CC2)C(F)(F)F)cn3-c2c(F)cc(F)cc2F)C1` on human M2 receptor (Homo sapiens, UniProt P08172)?
RESULT: 30

QUERY: Record `CC(C)C(NC(=O)c1cn(-c2c(F)cc(F)cc2F)c2nc(N3C[C@@H](O)[C@H](O)C3)c(F)cc2c1=O)C(C)C` : what is its Cooperativity (alpha factor) with human M2 receptor (Homo sapiens, UniProt P08172)?
RESULT: 57

---

Molecular target: human M2 receptor (Homo sapiens, UniProt P08172)
Sequence (P08172 1-466): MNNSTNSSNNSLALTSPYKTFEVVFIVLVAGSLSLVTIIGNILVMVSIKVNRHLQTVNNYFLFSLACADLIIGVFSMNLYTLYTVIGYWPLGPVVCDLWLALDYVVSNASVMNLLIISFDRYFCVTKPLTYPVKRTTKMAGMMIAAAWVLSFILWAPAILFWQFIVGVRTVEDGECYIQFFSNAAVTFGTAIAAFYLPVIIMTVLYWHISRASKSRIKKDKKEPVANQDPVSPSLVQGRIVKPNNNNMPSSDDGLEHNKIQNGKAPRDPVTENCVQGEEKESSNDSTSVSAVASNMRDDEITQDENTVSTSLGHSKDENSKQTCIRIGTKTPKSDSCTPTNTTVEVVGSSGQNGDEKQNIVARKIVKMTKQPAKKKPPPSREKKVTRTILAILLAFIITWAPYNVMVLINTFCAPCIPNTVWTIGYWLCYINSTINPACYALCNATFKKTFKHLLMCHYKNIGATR
Experiment: Functional M2-GIRK1/4 activation test: allosteric potency (EC50) and efficiency at EC20 acetylcholine
Settings: CHO-DUKX-M2-GIRK cells; voltage-sensitive dye; acetylcholine at EC20; in some cases mean of two or more determinations
Give pEC50 for every item shown.
Value format note: pEC50 is -log10 of concentration (mol/L); just state the number.

QUERY: Which measured pEC50 value corresponds to `CCC(C)(CC)NC(=O)c1cn(-c2ncc(F)cc2F)c2nc(N3C[C@@H](O)[C@H](O)C3)c(F)cc2c1=O` ?
RESULT: 7.54

QUERY: Item under review: CC(C)(NC(=O)c1cn(-c2c(F)cc(F)cc2F)c2nc(N3CC4(COC4)C3)c(F)cc2c1=O)C(F)(F)C(F)(F)F (racemic) . Reported pEC50?
RESULT: 7.60

QUERY: Which measured pEC50 value corresponds to `O=C(N[C@@H](C1CC1)C(F)(F)F)c1cn(-c2c(F)cc(F)cc2F)c2nc(N3CCNCC3)c(F)cc2c1=O` ?
RESULT: 6.82

QUERY: Looking for the measured pEC50 of `CC[C@@H](NC(=O)c1cn(-c2c(F)cc(F)cc2F)c2nc(N3C[C@@H](O)[C@H](O)C3)c(F)cc2c1=O)C(F)(F)F` , can you help?
RESULT: 8.30

---

biological target: human M2 receptor (Homo sapiens, UniProt P08172); construct: expressed in transfected cells; host or cells: CHO-DUKX (CHO-DUKX-M2-GIRK); assay: Functional M2-GIRK1/4 activation test: allosteric potency (EC50) and efficiency at EC20 acetylcholine; type: cell-based; details: boosting of the acetylcholine effect at EC20 acetylcholine concentration; CHO-DUKX-M2-GIRK cells
Readout name: Emax (%)
Form entry: value (%) — number only.

QUERY: Look at this compound and give its reported Emax. CC(C)C(NC(=O)c1cn(-c2c(F)cc(F)cc2F)c2nc(N3C[C@@H](O)[C@@H](O)C3)c(F)cc2c1=O)C(C)C [Example 103]
RESULT: 100

QUERY: Requested read-out: Emax. Entry: CC(NC(=O)c1cn(-c2c(F)cc(F)cc2F)c2nc(N3CCC(O)C(O)C3)c(F)cc2c1=O)C(F)(F)C(F)(F)F (stereo not shown) [Example 181]
RESULT: 83

QUERY: If you can, please state the reported Emax value of CN(C)c1nc2c(cc1F)c(=O)c(C(=O)NC(C)(C)C)cn2-c1c(F)cc(F)cc1F [Example 60] .
RESULT: 100

QUERY: What Emax value was documented for this compound, O=C(N[C@@H](C1CC1)C(F)(F)F)c1cn(-c2c(F)cc(F)cc2Cl)c2nc(N3CC(CO)(CO)C3)c(F)cc2c1=O [Example 69] ?
RESULT: 100

QUERY: Find the recorded Emax belonging to C[C@H](O)CN(C)c1nc2c(cc1F)c(=O)c(C(=O)N[C@@H](C1CC1)C(F)(F)F)cn2-c1c(F)cc(F)cc1Cl [Example 72] and report it.
RESULT: 89

QUERY: Find the recorded Emax belonging to CCN(CC(C)O)c1nc2c(cc1F)c(=O)c(C(=O)N[C@@H](C1CC1)C(F)(F)F)cn2-c1c(F)cc(F)cc1F (mixture of isomers) [Example 65] and report it.
RESULT: 89

QUERY: Consider the compound CC(C)(NC(=O)c1cn(-c2c(F)cc(F)cc2F)c2nc(N3C[C@@H](O)[C@H](O)C3)c(F)cc2c1=O)C1CC1 [Example 25] and give its measured Emax.
RESULT: 95

---

Molecular target: human M2 receptor (Homo sapiens, UniProt P08172)
Construct: expressed in transfected cells; host or cells: CHO-DUKX (CHO-DUKX-M2-GIRK)
Sequence (P08172 1-466): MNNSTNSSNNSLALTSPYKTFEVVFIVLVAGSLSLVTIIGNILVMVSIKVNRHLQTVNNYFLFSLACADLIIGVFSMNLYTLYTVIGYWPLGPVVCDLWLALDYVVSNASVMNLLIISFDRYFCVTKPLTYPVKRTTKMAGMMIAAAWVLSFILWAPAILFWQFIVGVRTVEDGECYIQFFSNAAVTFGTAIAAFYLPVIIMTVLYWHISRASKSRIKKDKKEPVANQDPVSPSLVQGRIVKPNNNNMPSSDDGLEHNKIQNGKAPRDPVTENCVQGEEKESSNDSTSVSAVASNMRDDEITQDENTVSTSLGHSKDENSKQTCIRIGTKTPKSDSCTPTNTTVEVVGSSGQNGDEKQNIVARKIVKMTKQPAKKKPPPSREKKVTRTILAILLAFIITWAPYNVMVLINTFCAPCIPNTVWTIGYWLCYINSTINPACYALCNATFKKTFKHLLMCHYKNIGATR
Assay: Functional M2-GIRK1/4 activation test: allosteric potency (EC50) and efficiency at EC20 acetylcholine
Type: cell-based
Conditions: boosting of the acetylcholine effect at EC20 acetylcholine concentration; CHO-DUKX-M2-GIRK cells
Source text: The binding of orthosteric agonists (endogenous ligand: acetylcholine) to the M2 receptor leads to receptor activation or a change in conformation of the receptor in the manner of a shift in equilibrium in favour of the active receptor conformation. The agonist-induced change in conformation of the M2 receptor results in a Gαi protein activation. […] Under physiological conditions, the result is then a selective efflux of potassium from the cell along the electrochemical gradient. […]
Readout name: Emax (%)
Kindly provide the numeric value in % only, without the unit symbol.

QUERY: I'd like to know its Emax. The compound in question is `COC[C@@H](NC(=O)c1cn(-c2c(F)cc(F)cc2F)c2nc(N3C[C@@H](O)[C@@H](O)C3)c(F)cc2c1=O)C(C)C`
RESULT: 92

QUERY: Give its Emax value. Item: `O=C(NC(C(F)(F)F)C(F)(F)F)c1cn(-c2c(F)cc(F)cc2F)c2nc(N3CCC[C@@H]3CO)c(F)cc2c1=O`
RESULT: 100

QUERY: What value of Emax has been recorded for this entry: `CC(C)C(NC(=O)c1cn(-c2c(F)cc(F)cc2F)c2nc(N3C[C@@H](O)[C@H](O)C3)c(F)cc2c1=O)C(C)C`
RESULT: 100

QUERY: Which Emax value belongs to `CC[C@H](NC(=O)c1cn(-c2c(F)cccc2F)c2nc(N(C)CCO)c(F)cc2c1=O)C(F)(F)F` ?
RESULT: 89

QUERY: Consider the compound O=C(NC(c1ccccc1Cl)C(F)(F)F)c1cn(-c2ccc(F)cc2F)c2ncc(Cl)cc2c1=O (racemic) and give its measured Emax.
RESULT: 55

QUERY: Given the entry CCC(NC(=O)c1cn(-c2c(F)cc(F)cc2F)c2nc(N3CC(CO)(CO)C3)c(F)cc2c1=O)C(F)(F)C(F)(F)F (racemic) , report its measured Emax.
RESULT: 95
